Biological target: EGFR (del19/L858R/T790M) (Homo sapiens, UniProt P00533, T790M, form not given)
Sequence (P00533 with tags, fused parts or gaps DEL746-750/T790M, form open): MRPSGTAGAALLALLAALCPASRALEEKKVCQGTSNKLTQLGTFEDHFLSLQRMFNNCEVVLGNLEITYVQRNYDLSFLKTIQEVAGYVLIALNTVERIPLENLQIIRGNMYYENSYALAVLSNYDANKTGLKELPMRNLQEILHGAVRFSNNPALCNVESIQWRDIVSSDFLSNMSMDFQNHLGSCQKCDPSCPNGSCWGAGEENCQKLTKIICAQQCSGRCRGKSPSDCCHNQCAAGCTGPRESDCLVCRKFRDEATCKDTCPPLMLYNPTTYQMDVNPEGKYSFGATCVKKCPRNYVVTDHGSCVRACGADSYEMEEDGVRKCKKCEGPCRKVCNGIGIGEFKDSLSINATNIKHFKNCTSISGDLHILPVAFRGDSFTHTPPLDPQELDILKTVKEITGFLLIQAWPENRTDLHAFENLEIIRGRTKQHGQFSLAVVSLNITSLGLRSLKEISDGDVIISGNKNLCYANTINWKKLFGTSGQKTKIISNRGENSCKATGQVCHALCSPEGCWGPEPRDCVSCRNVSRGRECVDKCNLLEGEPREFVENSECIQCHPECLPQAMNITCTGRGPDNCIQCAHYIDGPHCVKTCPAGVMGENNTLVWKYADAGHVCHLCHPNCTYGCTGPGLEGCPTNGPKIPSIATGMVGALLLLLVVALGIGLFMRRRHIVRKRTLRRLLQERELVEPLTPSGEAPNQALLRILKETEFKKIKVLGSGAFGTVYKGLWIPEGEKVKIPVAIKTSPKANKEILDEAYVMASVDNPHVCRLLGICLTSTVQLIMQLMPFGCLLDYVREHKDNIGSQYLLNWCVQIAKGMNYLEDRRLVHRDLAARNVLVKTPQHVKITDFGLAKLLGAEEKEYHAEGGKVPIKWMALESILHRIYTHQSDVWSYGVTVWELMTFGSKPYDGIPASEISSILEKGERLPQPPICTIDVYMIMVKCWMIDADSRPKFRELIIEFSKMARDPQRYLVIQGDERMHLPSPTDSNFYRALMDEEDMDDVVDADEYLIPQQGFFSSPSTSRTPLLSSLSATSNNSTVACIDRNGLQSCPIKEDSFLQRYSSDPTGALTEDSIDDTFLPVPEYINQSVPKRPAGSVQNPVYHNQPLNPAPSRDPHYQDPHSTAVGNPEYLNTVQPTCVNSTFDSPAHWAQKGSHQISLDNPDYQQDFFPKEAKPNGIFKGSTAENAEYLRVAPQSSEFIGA
Assay: Kinase inhibitory activity (33P-ATP filter-binding, scintillation counting)
Property: IC50; scope: individual compounds

COc1cc(N2CCSCC2)c(-c2cnn(C)c2)cc1Nc1ncc(Cl)c(Nc2ccccc2NS(C)(=O)=O)n1 [Example 7] ... < 50 nM
COc1cc(N2CC3(CN(C)C3)C2)c(-c2cnn(C)c2)cc1Nc1ncc(Cl)c(Nc2ccccc2N(C)S(C)(=O)=O)n1 [Example 6] ... < 50 nM
COc1cc(N2CC3(COC3)C2)c(-c2cnn(C)c2)cc1Nc1ncc(Cl)c(Nc2ccccc2N(C)S(C)(=O)=O)n1 [Example 5] ... < 50 nM
COc1cc(N2CCSCC2)c(-c2cnn(C)c2)cc1Nc1ncc(Cl)c(Nc2ccccc2N(C)S(C)(=O)=O)n1 [Example 3] ... < 50 nM
COc1cc(N2CCN(C)CC2)c(-c2cnn(C)c2)cc1Nc1ncc(Cl)c(Nc2ccccc2NS(C)(=O)=O)n1 [Example 8] ... 50 to 100 nM

# get_value(readout= IC50, system= EGFR (del19/L858R/T790M) (Homo sapiens, UniProt P00533, T790M, form not given)) for COc1cc(N2CCOCC2)c(-c2cnn(C)c2)cc1Nc1ncc(Cl)c(Nc2ccccc2N(C)S(C)(=O)=O)n1 [Example 1] < 50 nM

Record: COc1cc(N2CCN(C)CC2)c(-c2cnn(C)c2)cc1Nc1ncc(Cl)c(Nc2ccccc2N(C)S(C)(=O)=O)n1 [Example 4] < 50 nM

// same read-out, input: COc1cc(N2CC3(CN(C)C3)C2)c(-c2cnn(C)c2)cc1Nc1ncc(Cl)c(Nc2ccccc2NS(C)(=O)=O)n1 [Example 10] 50 to 100 nM

Subsequent entry: COc1cc(N2CC3(COC3)C2)c(-c2cnn(C)c2)cc1Nc1ncc(Cl)c(Nc2ccccc2NS(C)(=O)=O)n1 [Example 9] < 50 nM

----------
Target: EGFR (del19/T790M/C797S) (Homo sapiens, UniProt P00533, C797S/DEL746-750/T790M)
Sequence (P00533 with tags, fused parts or gaps DEL746-750/T790M/C797S limits assumed): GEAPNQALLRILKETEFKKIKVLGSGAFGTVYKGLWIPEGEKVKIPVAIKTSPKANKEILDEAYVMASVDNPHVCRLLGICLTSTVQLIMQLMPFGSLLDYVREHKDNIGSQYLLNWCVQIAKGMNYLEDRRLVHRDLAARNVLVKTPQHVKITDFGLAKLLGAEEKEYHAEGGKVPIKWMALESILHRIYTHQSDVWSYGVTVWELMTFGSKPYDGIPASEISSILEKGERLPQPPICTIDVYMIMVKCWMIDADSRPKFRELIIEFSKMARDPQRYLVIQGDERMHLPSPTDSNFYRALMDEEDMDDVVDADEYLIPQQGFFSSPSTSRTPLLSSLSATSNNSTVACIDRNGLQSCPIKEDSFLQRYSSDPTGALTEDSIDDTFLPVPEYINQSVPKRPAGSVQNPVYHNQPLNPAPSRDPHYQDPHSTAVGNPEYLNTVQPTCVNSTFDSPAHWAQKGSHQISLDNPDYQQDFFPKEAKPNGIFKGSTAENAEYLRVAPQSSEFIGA
Assay: Kinase inhibitory activity (33P-ATP filter-binding, scintillation counting)
pIC50: −log10 of the molar value.
Measured pIC50 values are reported for all entries that follow.

Below, each entry is followed by its recorded pIC50 result.
COc1cc(N2CCSCC2)c(-c2cnn(C)c2)cc1Nc1ncc(Cl)c(Nc2ccccc2NS(C)(=O)=O)n1 ... > 7.30
COc1cc(N2CCN(C)CC2)c(-c2cnn(C)c2)cc1Nc1ncc(Cl)c(Nc2ccccc2NS(C)(=O)=O)n1 ... 7.00 to 7.30
COc1cc(N2CC3(COC3)C2)c(-c2cnn(C)c2)cc1Nc1ncc(Cl)c(Nc2ccccc2NS(C)(=O)=O)n1 ... > 7.30
COc1cc(N2CCN(C)CC2)c(-c2cnn(C)c2)cc1Nc1ncc(Cl)c(Nc2ccccc2N(C)S(C)(=O)=O)n1 ... 7.00 to 7.30

The record that follows has no pIC50 shown yet.
Recorded pIC50 for "COc1cc(N2CC3(CN(C)C3)C2)c(-c2cnn(C)c2)cc1Nc1ncc(Cl)c(Nc2ccccc2NS(C)(=O)=O)n1" with EGFR (del19/T790M/C797S) (Homo sapiens, UniProt P00533, C797S/DEL746-750/T790M), please? 7.00 to 7.30
